List of IC50 values.
Experimental Details: Antagonist activity against human CCR5 assessed as inhibition of HIV1 gp120-induced cell-cell fusion between human HeLa P4/R5 cells and CHO-tat10 cells expressing HIV-1JRFL viral envolop protein after 20 hrs by beta-galactosidase reporter gene assay
Please state the figure in nM; there is no need to write the unit.

• COc1ccc(N(Cc2cnccc2C)C2CCN([C@H](C)CCNC(=O)c3c(C)cc(C(=O)NC(C)C)nc3C)CC2)cc1 = 0.09
• Cc1ccncc1CN(c1ccc([S+](C)[O-])cc1)C1CCN([C@H](C)CCNC(=O)c2c(C)ncnc2C)CC1 (stereo partly drawn) = 130

// below: IC50 requested for another molecule
# IC50 lookup, item COCCOc1ccc(N(Cc2cnccc2C)C2CCN([C@H](C)CCNC(=O)c3c(C)cc(F)nc3C)CC2)cc1
1.3
